# STUDY SYSTEM: Bacterial 70S ribosome
# PROTOCOL NOTES: Inhibition of Mycobacterium smegmatis wild type ribosomes assessed as inhibition of translation activity using Firefly luciferase mRNA reporter based luminescence analysis
# Type: subcellular, Mycolicibacterium smegmatis
pIC50: −log10 of the molar value.
Decide by pIC50: equal to or exceeding 7 means yes (1), less means no (0).

[
  {
    "CHEMICAL STRING": "CCC[C@H]1[C@H](O)[C@@H](N)[C@@H](O[C@H]2[C@H](O[C@@H]3O[C@H](CO)[C@@H](O[C@H]4O[C@@H](CN)[C@@H](O)[C@H](O)[C@H]4N)[C@H]3O)[C@@H](O)[C@H](N)C[C@@H]2N)O[C@@H]1CO",
    "LABEL CLASS": "yes (1)"
  },
  {
    "CHEMICAL STRING": "CCN[C@@H]1C[C@H](N)[C@@H](O[C@H]2OC(CN)=C(c3ccccc3)C[C@H]2N)[C@H](O)[C@H]1O[C@H]1OC[C@](C)(O)[C@H](NC)[C@H]1O",
    "LABEL CLASS": "no (0)"
  },
  {
    "CHEMICAL STRING": "CCN[C@@H]1C[C@H](N)[C@@H](O[C@H]2OC(CN)=CC[C@H]2N)[C@H](O)[C@H]1O[C@H]1OC[C@](C)(O)[C@H](NC)[C@H]1O",
    "LABEL CLASS": "yes (1)"
  },
  {
    "CHEMICAL STRING": "CCS[C@H]1[C@H](O)[C@@H](N)[C@@H](O[C@H]2[C@H](O[C@@H]3O[C@H](CO)[C@@H](O[C@H]4O[C@@H](CN)[C@@H](O)[C@H](O)[C@H]4N)[C@H]3O)[C@@H](O)[C@H](N)C[C@@H]2N)O[C@@H]1CO",
    "LABEL CLASS": "yes (1)"
  },
  {
    "CHEMICAL STRING": "NC[C@@H]1O[C@H](O[C@H]2[C@@H](O)[C@H](O[C@@H]3[C@@H](O)[C@H](N)C[C@H](N)[C@H]3O[C@H]3O[C@H](CO)[C@@H](O)[C@H](O)[C@H]3N)O[C@@H]2CO)[C@H](N)[C@@H](O)[C@@H]1O",
    "LABEL CLASS": "yes (1)"
  },
  {
    "CHEMICAL STRING": "CCN[C@@H]1C[C@H](N)[C@@H](O[C@H]2OC(CN)=C(SCC)C[C@H]2N)[C@H](O)[C@H]1O[C@H]1OC[C@](C)(O)[C@H](NC)[C@H]1O",
    "LABEL CLASS": "no (0)"
  },
  {
    "CHEMICAL STRING": "CCCCC1=C(CN)O[C@H](O[C@H]2[C@H](O)[C@@H](O[C@H]3OC[C@](C)(O)[C@H](NC)[C@H]3O)[C@H](NCC)C[C@@H]2N)[C@H](N)C1",
    "LABEL CLASS": "no (0)"
  }
]

Values compiled from ChEMBL document CHEMBL4373646.
